Data provenance is ChEMBL document CHEMBL4138119.

Target: Peroxisome proliferator-activated receptor alpha (Homo sapiens)
Assay: Transactivation of human Gal4-fused PPARalpha LBD expressed in African green monkey COS7 cells after 24 hrs by luciferase reporter gene assay relative to WY14643
Type: cell-based
Each entry below lists one item and its recorded Emax value.
State the value with its unit after it.

Study these solved cases before continuing.
> print(dat)
                                   compound  readout  recorded.value
1  CCOC(Cc1ccc(OCCn2c(=O)sc3cc(/C=C/c4cc(O)cc(O)c4)ccc32)cc1)C(=O)O (stereo not given)     Emax             29%
2  CCOC(Cc1ccc(OCCn2c(=O)sc3cc(C(=O)/C=C/c4cc(OC)cc(OC)c4)ccc32)cc1)C(=O)O (stereo not given)     Emax             53%
3  O=C(O)C(Cc1ccc(OCCn2c(=O)sc3cc(/C=C/c4cc(O)cc(O)c4)ccc32)cc1)OCC(F)(F)F (stereo not given)     Emax            100%

# return recorded Emax for entry COc1cc(/C=C/C(=O)c2ccc3c(c2)sc(=O)n3CCOc2ccc(CC(OCC(F)(F)F)C(=O)O)cc2)cc(OC)c1 (stereo not given)
36%

# return recorded Emax for entry CCOC(=O)C(Cc1ccc(OCCn2c(=O)sc3cc(C(=O)/C=C/c4cc(O)cc(O)c4)ccc32)cc1)OCC (stereo not given)
42%

# return recorded Emax for entry CCOC(=O)C(Cc1ccc(OCCn2c(=O)sc3cc(/C=C/c4cc(OC)cc(OC)c4)ccc32)cc1)OCC(F)(F)F (stereo not given)
136%

# return recorded Emax for entry CCOC(=O)C(Cc1ccc(OCCn2c(=O)sc3cc(/C=C/c4cc(OC)cc(OC)c4)ccc32)cc1)OCC (stereo not given)
149%

# return recorded Emax for entry CCOC(=O)C(Cc1ccc(OCCn2c(=O)sc3cc(C(=O)/C=C/c4cc(OC)cc(OC)c4)ccc32)cc1)OCC (stereo not given)
0%

# return recorded Emax for entry CCOC(Cc1ccc(OCCn2c(=O)sc3cc(/C=C/c4cc(OC)cc(OC)c4)ccc32)cc1)C(=O)NC (stereo not given)
0%

# return recorded Emax for entry CCOC(Cc1ccc(OCCn2c(=O)sc3cc(/C=C/c4cc(OC)cc(OC)c4)ccc32)cc1)C(=O)O (stereo not given)
494%

---

Tested on: Mus musculus
Test: Anti-diabetic activity in ob/ob mouse assessed as change in serum triglyceride levels at 8.4 uM/kg administered via oral gavage daily for 4 days measured on day 5 relative to control
Format: functional
Each entry below lists one item and its recorded Activity value.
// note: answer is a bare numeric in %

> print(dat)
                                   molecule  units.symbol  recorded.value
1  CCOC(Cc1ccc(OCCn2c(=O)sc3cc(/C=C/c4cc(OC)cc(OC)c4)ccc32)cc1)C(=O)NC (stereo not drawn)             %             -29
2  CCOC(Cc1ccc(OCCn2c(=O)sc3cc(/C=C/c4cc(OC)cc(OC)c4)ccc32)cc1)C(=O)O (stereo not drawn)             %             -56
3  CCOC(=O)C(Cc1ccc(OCCn2c(=O)sc3cc(/C=C/c4cc(O)cc(O)c4)ccc32)cc1)OCC(F)(F)F (stereo not drawn)             %             -25
4  CCOC(=O)C(Cc1ccc(OCCn2c(=O)sc3cc(C(=O)/C=C/c4cc(O)cc(O)c4)ccc32)cc1)OCC (stereo not drawn)             %             -28
5  CCOC(Cc1ccc(OCCn2c(=O)sc3cc(C(=O)/C=C/c4cc(OC)cc(OC)c4)ccc32)cc1)C(=O)O (stereo not drawn)             %             -31

# return recorded Activity for entry CCOC(=O)C(Cc1ccc(OCCn2c(=O)sc3cc(C(=O)/C=C/c4cc(O)cc(O)c4)ccc32)cc1)OCC(F)(F)F (stereo not drawn)
-8

# return recorded Activity for entry CCOC(Cc1ccc(OCCn2c(=O)sc3cc(/C=C/c4cc(O)cc(O)c4)ccc32)cc1)C(=O)O (stereo not drawn)
-52

# return recorded Activity for entry COc1cc(/C=C/C(=O)c2ccc3c(c2)sc(=O)n3CCOc2ccc(CC(OCC(F)(F)F)C(=O)O)cc2)cc(OC)c1 (stereo not drawn)
-18
